Molecular target: GSK3α (GST-full length GSK3α) (Homo sapiens (Human), UniProt P49840)
Sequence (P49840 whole entry): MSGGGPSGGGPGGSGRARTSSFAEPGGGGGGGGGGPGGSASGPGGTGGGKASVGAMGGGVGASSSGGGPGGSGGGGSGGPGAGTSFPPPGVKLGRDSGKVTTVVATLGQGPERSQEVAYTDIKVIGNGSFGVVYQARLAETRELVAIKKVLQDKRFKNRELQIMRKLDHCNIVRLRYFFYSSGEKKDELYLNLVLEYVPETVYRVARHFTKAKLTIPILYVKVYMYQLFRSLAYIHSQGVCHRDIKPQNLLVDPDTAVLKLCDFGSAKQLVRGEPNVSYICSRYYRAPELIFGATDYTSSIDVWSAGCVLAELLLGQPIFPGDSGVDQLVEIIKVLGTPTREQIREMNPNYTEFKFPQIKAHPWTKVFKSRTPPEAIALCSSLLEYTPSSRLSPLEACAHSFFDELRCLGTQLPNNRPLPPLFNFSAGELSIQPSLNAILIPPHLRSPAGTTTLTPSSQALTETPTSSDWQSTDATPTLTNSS
Assay: GSK3α TR-FRET kinase assay
Type: biochemical
Settings: 1 nM GSK3α, 4 μM ATP, 30 minute preincubation; read-out: GSK3-A TR-FRET BIOCHEMICAL (TR-FRET); IC50
Kindly supply the reported IC50 values for the records listed here.

Exam item: Need IC50, item CCC1(c2cccc(-c3ccnc(C)c3)c2)C2=C(CC(C)(C)NC2=O)Nc2n[nH]cc21 (stereo not shown) [Compound 927325]
Marked response: ≤ 100 nM

Exam item: Need IC50, item CC1(C)CC(=O)C2=C(C1)Nc1n[nH]cc1C21COC2(CN(C(=O)OC(C)(C)C)C2)C1 (stereo not shown)
Marked response: 100 to 1000 nM

Exam item: Need IC50, item CCC1(c2cccc(C(F)(F)F)c2)C2=C(CCN(C(C)C)C2=O)Nc2n[nH]cc21 (stereo not shown)
Marked response: ≤ 100 nM

Exam item: Need IC50, item `CC(=O)N1CC[C@]2(C1)C[C@]1(CO2)C2=C(CC(C)(C)CC2=O)Nc2n[nH]cc21`
Marked response: ≤ 100 nM

Exam item: Need IC50, item `CC1(C)CC(=O)C2=C(C1)Nc1n[nH]cc1C21CCN(S(=O)(=O)c2ccc3ccccc3n2)CC1`
Marked response: ≤ 100 nM

Exam item: Need IC50, item `CCc1ncc(S(=O)(=O)N2CCC3(CC2)C2=C(CC(C)(C)NC2=O)Nc2n[nH]cc23)s1`
Marked response: ≤ 100 nM

Exam item: Need IC50, item `CC1(C)CC(=O)C2=C(C1)Nc1n[nH]cc1[C@@]21COC2(CN(C(=O)Cc3ccccc3)C2)C1`
Marked response: ≤ 100 nM

====

Target: GSK3b (GST-full length GSK3b) (Homo sapiens (Human))
Sequence (P49841 whole entry): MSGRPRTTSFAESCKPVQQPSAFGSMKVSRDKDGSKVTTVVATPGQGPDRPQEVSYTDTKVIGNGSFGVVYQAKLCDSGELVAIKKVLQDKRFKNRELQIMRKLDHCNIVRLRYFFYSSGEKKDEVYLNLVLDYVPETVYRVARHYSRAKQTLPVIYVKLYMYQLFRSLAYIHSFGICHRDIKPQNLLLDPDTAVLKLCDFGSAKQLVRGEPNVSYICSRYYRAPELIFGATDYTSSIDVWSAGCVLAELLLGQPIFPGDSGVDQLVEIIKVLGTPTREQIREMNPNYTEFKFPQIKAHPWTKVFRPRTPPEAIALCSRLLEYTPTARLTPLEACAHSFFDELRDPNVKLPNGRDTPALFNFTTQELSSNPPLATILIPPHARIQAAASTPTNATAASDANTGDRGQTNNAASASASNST
Assay: GSK3b TR-FRET kinase assay
Format: biochemical
Settings: 1 nM GSK3b, 2 μM ATP, 30 minute preincubation; read-out: GSK3-B TR-FRET BIOCHEMICAL (TR-FRET); IC50
pIC50: −log10 of the molar value.
OBSERVED_PROPERTY: pIC50

Exam item: Need pIC50, item CC1(C)CC(=O)C2=C(C1)Nc1n[nH]cc1C21COC2(CN(C(=O)c3ccccc3)C2)C1 (stereo not shown) [Compound 943956]
Marked response: 5.30 to 6.00

Exam item: Need pIC50, item CCC1(c2cccc(C(F)(F)F)c2)C2=C(CC(C)(C)NC2=O)Nc2n[nH]cc21 (stereo not shown) [Compound 913006]
Marked response: ≥ 7.00

Exam item: Need pIC50, item CC[C@@]1(c2cccc(C(F)(F)F)c2)C2=C(Nc3n[nH]cc31)[C@H](C)N(Cc1ccccc1)C2=O [Compound 930331]
Marked response: 6.00 to 7.00

Exam item: Need pIC50, item Cn1ccc(S(=O)(=O)N2CCC3(CC2)C2=C(CC(C)(C)NC2=O)Nc2n[nH]cc23)n1 [Compound 943961]
Marked response: ≥ 7.00

Exam item: Need pIC50, item CCC1(c2cccc(-c3ccnn3C)c2)C2=C(CC(C)(C)NC2=O)Nc2n[nH]cc21 (stereo not shown) [Compound 914971]
Marked response: 6.00 to 7.00

Exam item: Need pIC50, item Cc1ccc(C(=O)N2CC3(C2)C[C@]2(CO3)C3=C(CC(C)(C)CC3=O)Nc3n[nH]cc32)cc1C [Compound 948039]
Marked response: 5.30 to 6.00

Exam item: Need pIC50, item CC[C@]1(c2cccc(C(F)(F)F)c2)C2=C(Nc3n[nH]cc31)[C@@H](C)CN(C)C2=O [Compound 883981]
Marked response: < 5.30
